# Test system: Staphylococcus aureus
# assay_method_text: Microbicidal activity of the myeloperoxidase system (p-MPO, glucose oxidase, glucose) with amino acids in the presence of blood, CFU plate counts; synergy determination from these CFU
# Format: cell-based
# experimental_context: Table 3; amino acid 5 mM (none: 0 mM); MPO 38 U/ml; GO 33.3 U/ml; blood
observable: Log Reduction 60 min

compound | study_target | observed
NCCS(=O)(=O)O [Taurine] | Staphylococcus aureus | 1.4
O=C(O)c1cccnc1 [Nicotinic acid] | Staphylococcus aureus | 0.7
O=C(O)CNC(=O)c1ccccc1 [Hippuric acid] | Staphylococcus aureus | 1.4
CC[C@H](C)[C@H](N)C(=O)O [L-Isoleucine] | Staphylococcus aureus | 7.3
O=C(O)[C@@H]1C[C@@H](O)CN1 [L-Hydroxyproline] | Staphylococcus aureus | 7.3
CC(=O)C(=O)O [Pyruvic acid] | Staphylococcus aureus | 0.6
